- Test system: P388 leukemia ip, CD2F1 mice, survival T/C
- assay.remarks: NCI In Vivo Anticancer Drug Screen. Data for tumor model P388 Leukemia (intraperitoneal) in CD2F1 (CDF1) mice
- condition: endpoint: median survival time; dose: 50.0 mg/kg/injection; schedule: Q01DX005 (ip); vehicle: saline with Tween-80; higher = longer survival
- Method: The antitumor activity of compounds was measured in mice bearing transplantable tumors. Survival or tumor size were measured and the results are expressed as the measurement made in the treated group (T) divided by the measurement made in the vehicle treated control group (C). The tumor model used in this assay is P388 Leukemia (intraperitoneal) in CD2F1 (CDF1) mice
Toxic doses and inconclusive results are not listed.
compounds and their reported T/C

CCN(CC)C(=O)c1cc2c(=O)c3c(ccc4ccccc43)oc2n(C)c1=O : 98 % of control
Cc1cc(C)c(-c2c(Br)c(OC(=O)CO[C@@H]3C[C@H](C)CC[C@H]3C(C)C)c(-c3c(C)cc(C)c(Br)c3C)c(Br)c2OC(=O)CO[C@@H]2C[C@H](C)CC[C@H]2C(C)C)c(C)c1Br : 107 % of control

Prompt: Which T/C reading was recorded for the compound `CCOC(=O)COc1cc2c(cc1Cc1ccc(OC)cc1)OCO2` ?
Response: 97 % of control

Prompt: Again, but for `COc1ccccc1N/N=c1\c2nc3ccccc3nc1n(-c1ccccc1C)c(=S)n2-c1ccc(Cl)cc1`
Response: 88 % of control

Prompt: Moving on to `O=C1CN(CCCCl)CC(=O)N2Cc3ccccc3CN12`
Response: 106 % of control
